- protocol notes: Discrete IV PK in female mice
- Type: in vivo, mouse
- condition summary: C57Bl6, mouse, whole blood, 5 mg/kg IV
property measured: MRT (h)
Just the number in h, nothing appended.

# input Given O=C(c1ccc(OCc2ccc(OC(F)(F)F)cc2)cc1)N1CCN(c2ccc(C(F)(F)F)cn2)CC1 , state its recorded MRT.
# output 45.9

* * *

- protocol notes: Discrete IV PK in female mice
- Type: in vivo, mouse
- condition summary: C57Bl6, mouse, whole blood, 5 mg/kg IV, read-out: Vss
- Experimental: In-life phase–Compounds were formulated in 12% ethanol, 48% PEG400, and 40% DMSO (v/v/v) at a concentration of 1 mg/mL and administered as a single 0.2 mg/kg IV dose (1 mL/kg) to male, Sprague–Dawley rats (n = 1; 342 g body weight) via injection into a surgically implanted jugular vein catheter. […]
property measured: Vd

# input Consider the molecule shown here: O=C(c1ccc(OCc2ccc(OC(F)(F)F)cc2)cc1)N1CCN(c2ccc(C(F)(F)F)cn2)CC1 What is its recorded Vd?
# output 23.6 L/kg
